Sourced from PubChem BioAssay AID248

Tested on: L1210 leukemia ip in BDF1 mice, survival T/C
Assay: NCI In Vivo Anticancer Drug Screen. Data for tumor model L1210 Leukemia (intraperitoneal) in B6D2F1 (BDF1) mice
Settings: endpoint: mean survival time; dose: 200.0 mg/kg/injection; schedule: Q04DX003 (ip); vehicle: saline with Tween-80; higher = longer survival
Toxic doses and inconclusive results are not listed. Square brackets hold non-standard residues; d marks the D form. Peptide text beside a SMILES is read from it. * marks the point of attachment. ξ: configuration not given here. ξF = NC(Cc1ccccc1)C(=O)O; Cbz = O=C(OCc1ccccc1)*; OBn = c1ccc(CO*)cc1
Examples of compounds with documented T/C follow.

As a guide, the following entries are already answered.
> print(dat)
                                   compound        data.value
1                      OC1(C2(O)CCCC2)CCCC1   98 % of control
2  Cc1cc(C)c(NS(=O)(=O)c2ccc([N+](=O)[O-])cc2)c(C)c1   93 % of control
3                                    CCCSCC   91 % of control
4                           NC(=O)NC1CCCCC1   97 % of control
5  O=C(CNC(=O)OCc1ccccc1)NC(Cc1ccccc1)C(=O)OCc1ccccc1 (stereo not drawn) (Cbz-Gly-[ξF]-OBn)  103 % of control
6  CC(=O)OCC(OC(C)=O)C(OC1OC(COC(C)=O)C(OC(C)=O)C(OC(C)=O)C1OC(C)=O)C(OC(C)=O)C(C=O)OC(C)=O (configuration not stated)  105 % of control

Any idea what T/C came out for CC(=O)N(C1=C(N(CCO)CCO)C(=O)c2ccccc2C1=O)c1ccccc1 on L1210 leukemia ip in BDF1 mice, survival T/C?
103 % of control

Any idea what T/C came out for CCOC(=O)c1cnc(SC)nc1NCc1ccccc1C on L1210 leukemia ip in BDF1 mice, survival T/C?
94 % of control
